In this section we review reported pIC50 values for a set of molecules.
Target Or Test System: K-Ras G12C (Homo sapiens (Human), UniProt P01116+P62937, G12C)
Sequence (P01116-2 other isoform, or with tags, fused parts or gaps G12C): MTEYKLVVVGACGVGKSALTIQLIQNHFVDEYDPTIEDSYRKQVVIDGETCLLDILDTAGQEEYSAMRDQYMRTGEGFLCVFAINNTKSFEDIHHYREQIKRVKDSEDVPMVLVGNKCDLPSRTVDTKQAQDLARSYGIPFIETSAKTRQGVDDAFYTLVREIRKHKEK
Sequence (P62937 whole entry): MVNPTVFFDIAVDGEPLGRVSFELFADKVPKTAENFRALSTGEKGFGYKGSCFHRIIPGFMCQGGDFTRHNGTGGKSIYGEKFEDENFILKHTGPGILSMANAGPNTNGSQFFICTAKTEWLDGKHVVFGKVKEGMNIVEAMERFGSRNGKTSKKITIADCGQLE
Protocol Details: Ras-Raf (BRAF RBD) disruption / FRET / MOA assay, KRAS G12C
Type: biochemical
Conditions: KRAS G12C; Ras-Raf disruption/FRET/MOA assay; read-out: IC50* KRAS G12C FRET data
pIC50: −log10 of the molar value.
Value Type: pIC50

INSERT INTO measurements (molecule, recorded_value) VALUES
  ('C=C(F)C(=O)N1CC(N(C)C(=O)N(C)[C@H](C(=O)N[C@H]2Cc3nc(cs3)-c3ccc4c(c3)c(c(-c3cccnc3[C@H](C)OC)n4CC)CC(C)(C)COC(=O)[C@@H]3CCCN(N3)C2=O)C(C)C)C1 (atropisomer, axis not shown) [Example A732]', '6.00 to 7.00'),
  ('C=CC(=O)N(C)C[C@@H]1CCN(C(=O)N(C)[C@H](C(=O)N[C@H]2Cc3nc(cs3)-c3ccc4c(c3)c(c(-c3cccnc3[C@H](C)OC)n4CC)CC(C)(C)COC(=O)[C@@H]3CCCN(N3)C2=O)C(C)C)C1 (atropisomer, axis not shown) [Example A654]', '6.00 to 7.00');
